Task for the reader: assign each of the following molecules its reported cell viability.
test system: Calu-3; assay: cell viability relative to DMSO; higher = less toxic; details: 72 h; 10 nM
Give bare numbers, in %.

These recorded examples may help you get a feel for the data.
# Molecule, Unit label, cell viability
measured = [
    ("CC(=O)N[C@H]1[C@H]([C@H](O)[C@H](O)CO)OC(C(=O)O)=C[C@@H]1NC(=N)N [zanamivir]", "%", 92),
    ("COc1cc(CCc2cc(NC(=O)c3ccc(N4CC(C)NC(C)C4)cc3)n[nH]2)cc(OC)c1 (centres undefined) [AZD4547]", "%", 107),
    ("Cc1c(C)c2c(c(C)c1O)CCC(C)(C)O2 [APC-100]", "%", 95.1),
]

With those in mind, consider the next molecule.
Consider CC(C)=CCC[C@](C)(O)[C@H]1CC[C@]2(C)[C@@H]1[C@H](O)C[C@@H]1[C@@]3(C)CC[C@H](O)C(C)(C)[C@@H]3CC[C@]12C [S-111] . Its measured cell viability is 95.4
